All figures here come from ChEMBL document CHEMBL1781970.

system: HepG2; assay: Antiproliferative activity against human HepG2 cells after 72 hrs by MTT assay; format: functional, cell-based; details: HepG2, 72 h
measured-property: IC50 (µM)

smiles-code	test-target	recorded-number
C=C(C)[C@@H]1CC[C@]2(C(=O)N3CCC(N4CCCCC4)CC3)CC[C@]3(C)[C@H](CC[C@@H]4[C@@]5(C)CC[C@H](OC(C)=O)[C@@](C)(COC(C)=O)[C@@H]5CC[C@]43C)[C@@H]12	HepG2	11.1
C=C(C)[C@@H]1CC[C@]2(C(=O)NCCN)CC[C@]3(C)[C@H](CC[C@@H]4[C@@]5(C)CC[C@H](O)[C@@](C)(CO)[C@@H]5CC[C@]43C)[C@@H]12	HepG2	9.57

A = C=C(C)[C@@H]1CC[C@]2(C(=O)OCCN3CCOCC3)CC[C@]3(C)[C@H](CC[C@@H]4[C@@]5(C)CC[C@H](OC(C)=O)[C@@](C)(COC(C)=O)[C@@H]5CC[C@]43C)[C@@H]12
B = C=C(C)[C@@H]1CC[C@]2(C(=O)O)CC[C@]3(C)[C@H](CC[C@@H]4[C@@]5(C)CC[C@H](O)[C@@](C)(COC(=O)N6CCC(N7CCCCC7)CC6)[C@@H]5CC[C@]43C)[C@@H]12
C = C=CCN(CC=C)C(=O)[C@]12CC[C@@H](C(=C)C)[C@@H]1[C@H]1CC[C@@H]3[C@@]4(C)CC[C@H](O)[C@@](C)(CO)[C@@H]4CC[C@@]3(C)[C@]1(C)CC2
Rank items: key IC50, increasing. Your answer should be the labels, listed in the requested order. A, B, C

====

system: HepG2; assay: Antiproliferative activity against human HepG2 cells after 72 hrs by MTT assay; assay type: functional, cell-based; details: HepG2, 72 h
measured-property: IC50 (µM)

smiles-code	test-target	IC50 [µM]
C=C(C)[C@@H]1CC[C@]2(C(=O)N3CCNCC3)CC[C@]3(C)[C@H](CC[C@@H]4[C@@]5(C)CC[C@H](O)[C@@](C)(CO)[C@@H]5CC[C@]43C)[C@@H]12	HepG2	8.85
C=C(C)[C@@H]1CC[C@]2(C(=O)N3CCC(N4CCCCC4)CC3)CC[C@]3(C)[C@H](CC[C@@H]4[C@@]5(C)CC[C@@H]6OC(=O)OC[C@@]6(C)[C@@H]5CC[C@]43C)[C@@H]12	HepG2	10.3

a = C=C(CO)[C@@H]1CC[C@]2(C(=O)N3CCCCC3)CC[C@]3(C)[C@H](CC[C@@H]4[C@@]5(C)CC[C@H](OC(C)=O)[C@@](C)(COC(C)=O)[C@@H]5CC[C@]43C)[C@@H]12
b = C=C(C)[C@@H]1CC[C@]2(C(=O)N3CCOCC3)CC[C@]3(C)[C@H](CC[C@@H]4[C@@]5(C)CC[C@H](O)[C@@](C)(CO)[C@@H]5CC[C@]43C)[C@@H]12
Field: lower recorded IC50 (choose a or b ) Your answer should be the label of the entry you select. a
